# System name: human α2C receptor (Homo sapiens)
# Construct: expressed in transfected cells; host or cells: CHO cells, also recombinantly expressing chimeric G protein Gαqi3 and mitochondrial obelin (mtOb)
# Experiment: Antagonism against the adrenoreceptor α2C (luminescence, recombinant CHO cell line)
# Format: cell-based
# Reported conditions: antagonism against adrenoreceptor α2C; noradrenaline 20 nM; tested up to 10 μM; read-out: IC50
pIC50: −log10 of the molar value. Where a name gives a salt, the structure may show the parent alone.
Kindly return condition met if reported pIC50 is no lower than 7; return condition not met if it is lower.

Field: example entries. Status: answers known.
molecule="CCN(CCOC)C(=O)c1ccc(C(=O)N2CCC(N3CCCC(C)C3)CC2)cc1 (stereo not drawn) [Example 37, trifluoroacetic acid salt]" system_name="human α2C receptor (Homo sapiens)" class_label="condition not met"
molecule="CC1CCCN(C2CCN(C(=O)c3ccc(C(=O)NCc4ccccc4C(F)(F)F)cc3)CC2)C1 (stereo not drawn) [Example 81, trifluoroacetic acid salt]" system_name="human α2C receptor (Homo sapiens)" class_label="condition met"
molecule="CC1CCCN(C2CCN(C(=O)c3ccc(C(=O)NC(C)(C)c4cccc(Cl)c4)cc3)CC2)C1 (stereo not drawn) [Example 79, trifluoroacetic acid salt]" system_name="human α2C receptor (Homo sapiens)" class_label="condition met"

Let's switch to this molecule now.
Query string: Evaluate CC(C)(O)c1ccc(C(=O)N2CCC(N3CCCC(OCC4CC4)C3)CC2)cc1 (single isomer, unassigned; enantiomer 1) [Example 129] : pIC50 at minimum 7?
Result string: condition met

###

# System name: human α2C receptor (Homo sapiens, UniProt P18825)
# Construct: expressed in transfected cells; host or cells: CHO cells, also recombinantly expressing chimeric G protein Gαqi3 and mitochondrial obelin (mtOb)
# Sequence (P18825 whole entry): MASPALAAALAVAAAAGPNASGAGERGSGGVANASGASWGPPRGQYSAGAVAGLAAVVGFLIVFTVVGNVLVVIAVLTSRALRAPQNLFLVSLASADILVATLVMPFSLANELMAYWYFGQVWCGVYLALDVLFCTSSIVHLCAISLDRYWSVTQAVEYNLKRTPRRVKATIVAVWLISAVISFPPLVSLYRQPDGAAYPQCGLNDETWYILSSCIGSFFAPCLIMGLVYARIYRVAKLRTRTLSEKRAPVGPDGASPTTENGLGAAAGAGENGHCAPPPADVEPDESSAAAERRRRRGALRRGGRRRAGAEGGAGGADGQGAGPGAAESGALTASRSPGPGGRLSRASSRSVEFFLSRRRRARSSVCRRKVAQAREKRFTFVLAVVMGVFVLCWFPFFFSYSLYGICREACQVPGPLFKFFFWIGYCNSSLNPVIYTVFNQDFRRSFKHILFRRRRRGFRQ
# Experiment: Antagonism against the adrenoreceptor α2C (luminescence, recombinant CHO cell line)
# Assay type: cell-based
# Reported conditions: antagonism against adrenoreceptor α2C; noradrenaline 20 nM; tested up to 10 μM; read-out: IC50
Counter-ions that a name gives are not always drawn.
// reported IC50 per item
Your answer is read as nM, so omit the unit and give the number.

Examples from the recorded data:
molecule="C[C@@H]1CCCN(C2CCN(C(=O)c3ccc(C(=O)NC(CO)c4ccccc4F)cc3)CC2)C1 (stereo partly shown) [Example 94]" reported_endpoint=IC50 observed_measurement=25
molecule="CC1CCCN(C2CCN(C(=O)c3ccc(C(=O)N(C)C4CCCCC4)cc3)CC2)C1 (stereo not shown) [Example 49]" reported_endpoint=IC50 observed_measurement=348
molecule="COC(C)(C)c1ccc(C(=O)N2CCC(N3CCCC(OCC4CC4)C3)CC2)cc1 (stereo not shown) [Example 122]" reported_endpoint=IC50 observed_measurement=9
molecule="CC(C)(C)c1ccc(C(=O)N2CCC(N3CCCC(OC(=O)NC4CC4)C3)CC2)cc1 (stereo not shown) [Example 16]" reported_endpoint=IC50 observed_measurement=380
molecule="CC1CCCN(C2CCN(C(=O)c3ccc(C4(CN(C)C=O)CCC4)cc3)CC2)C1 (stereo not shown) [Example 67, trifluoroacetic acid salt]" reported_endpoint=IC50 observed_measurement=51
molecule="CC1CCCN(C2CCN(C(=O)c3ccc(C(=O)NC(C)(C)c4ccc(C(F)(F)F)cc4)cc3)CC2)C1 (stereo not shown) [Example 72, trifluoroacetic acid salt]" reported_endpoint=IC50 observed_measurement=116

Looking up CC1CCCN(C2CCN(C(=O)c3ccc(C(C)(C)C)cc3)CC2)C1 (single isomer, unassigned) [Example 6] , I see its IC50 listed as 91

Cited source for all entries: patent US20160318866A1
